assay: chemical genetic growth profiling, strain panel (AID 1159580);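 also: tested at 20 µM; growth read once vehicle control cultures reached saturation at 30 °C; 1 = growth at the plate median or of vehicle wells; lower values mean less growth of the strain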; details: S. cerevisiae deletion strains, growth OD, locus YGL173C, strain kem1, hits give low values
Out of some 5,500 compounds screened, about 2,000 (36%) were called active. Inconclusive results (about 18%) are left out. This is one part of the list.
assayReadout: normalized growth
Number only, no unit.

Worked examples, 5 compounds total:
INSERT INTO assay_data (compound, obsvalue) VALUES
  ('C[C@H]1COc2c(N3CCN(C)CC3)c(F)cc3c(=O)c(C(=O)O)cn1c23', 1.01),
  ('COc1ccc([C@H]2Oc3c(I)c(OC)cc(OC)c3C[C@@H]2O)cc1OC', 1.01),
  ('CO/N=C1/CN(c2nc3c(cc2F)c(=O)c(C(=O)O)cn3C2CC2)CC1CN (stereo not given)', 0.987),
  ('CNCCC(Oc1ccc(C(F)(F)F)cc1)c1ccccc1 (stereo not given)', 0.982),
  ('O=S(=O)(O)c1cc(N=C=S)ccc1/C=C/c1ccc(N=C=S)cc1S(=O)(=O)O', 1.04);

Which normalized growth value belongs to COc1c(N2CCNC(C)C2)c(F)cc2c(=O)c(C(=O)O)cn(C3CC3)c12 (stereo not given) ?
0.983

Which normalized growth value belongs to Oc1cc(O)c2c(c1)O[C@H](c1ccc(O)c(O)c1)[C@H](O)C2 ?
1.01

Which normalized growth value belongs to CN(C)CCCC1(c2ccc(F)cc2)OCc2cc(C#N)ccc21 (stereo not given) ?
0.989

Which normalized growth value belongs to Oc1cc(O)c2c(c1)O[C@H](c1cc(O)c(O)c(O)c1)[C@H](O)C2 ?
1.02

Which normalized growth value belongs to CCn1cc(C(=O)O)c(=O)c2cc(F)c(N3CCNCC3)nc21 ?
0.98

###

assay: chemical genetic growth profiling, strain panel (AID 1159580);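 also: tested at 20 µM; growth read once vehicle control cultures reached saturation at 30 °C; 1 = growth at the plate median or of vehicle wells; lower values mean less growth of the strain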; conditions: S. cerevisiae deletion strains, growth OD, locus YLR268W, strain sec22
The campaign covered roughly 5,500 compounds. About 2,000 (36%) were called active. About 18% were inconclusive and are not listed. Cut-off read from the data, not from the text of the source: active = normalized growth mostly below about 0.91 (no sharp cut-off); inconclusive = no clear call, values can overlap the other calls; inactive = mostly above about 0.92. The list shows a part of the results.
Outcomes you can answer with include only these: YES for active, NO for inactive

Example cases with answers are listed next.
INSERT INTO measurements (compound, assignedcategory) VALUES
  ('CNC(=O)O/N=C(\C)SC', 'NO'),
  ('O=C(O)CCCc1ccccc1', 'NO'),
  ('CCC1(O)CC(OC2CC(N(C)C)C(OC3CC(O)C(OC4CCC(=O)C(C)O4)C(C)O3)C(C)O2)c2c(cc3c(c2O)C(=O)c2c(O)cccc2C3=O)C1C(=O)OC (centres undefined)', 'NO'),
  ('CC(C)NCC(O)COc1cccc2[nH]ccc12 (centres undefined)', 'NO'),
  ('Clc1ccc(C(c2ccc(Cl)cc2)C(Cl)(Cl)Cl)cc1', 'NO'),
  ('C#CCN(C)Cc1ccccc1', 'NO'),
  ('COc1ccc(-c2coc3cc(O)ccc3c2=O)c(OC)c1O', 'NO'),
  ('COc1ccc(OC)c(C(O)CNC(=O)CN)c1 (centres undefined)', 'NO'),
  ('N[C@@H](Cc1ccc(N(CCCl)CCCl)cc1)C(=O)O', 'NO'),
  ('C[C@@H]1O[C@@H](O[C@H]2[C@H](Oc3cc(O)c4c(=O)cc(-c5ccc(O)cc5)oc4c3)O[C@H](CO)[C@@H](O)[C@@H]2O)[C@H](O)[C@H](O)[C@H]1O', 'NO');

Which outcome was assigned to CCC(C)C(=O)O[C@@H]1C[C@@]2(C)[C@H](c3ccoc3)OC(=O)CC23OC2(C)OC34[C@H](OC(=O)C(C)C)[C@@]3(O)[C@@H](OC(=O)C5(C)OC5C)[C@@]5(C)C[C@]3(O)[C@@](C)([C@H]5CC(=O)OC)C14O2 (some centres undefined) in this test?
NO

Which outcome was assigned to Cn1c(=O)c2c(ncn2CC(O)CO)n(C)c1=O (centres undefined) in this test?
NO

Which outcome was assigned to COc1ccc(C(CN(C)C)C2(O)CCCCC2)cc1 (centres undefined) in this test?
NO

Which outcome was assigned to C[n+]1c2cc(N)ccc2cc2ccc(N)cc21 in this test?
YES
